These entries and their values trace back to ChEMBL document CHEMBL4725383.

Test system: Microtubule-associated protein tau (Homo sapiens)
Sequence (P10636 whole entry): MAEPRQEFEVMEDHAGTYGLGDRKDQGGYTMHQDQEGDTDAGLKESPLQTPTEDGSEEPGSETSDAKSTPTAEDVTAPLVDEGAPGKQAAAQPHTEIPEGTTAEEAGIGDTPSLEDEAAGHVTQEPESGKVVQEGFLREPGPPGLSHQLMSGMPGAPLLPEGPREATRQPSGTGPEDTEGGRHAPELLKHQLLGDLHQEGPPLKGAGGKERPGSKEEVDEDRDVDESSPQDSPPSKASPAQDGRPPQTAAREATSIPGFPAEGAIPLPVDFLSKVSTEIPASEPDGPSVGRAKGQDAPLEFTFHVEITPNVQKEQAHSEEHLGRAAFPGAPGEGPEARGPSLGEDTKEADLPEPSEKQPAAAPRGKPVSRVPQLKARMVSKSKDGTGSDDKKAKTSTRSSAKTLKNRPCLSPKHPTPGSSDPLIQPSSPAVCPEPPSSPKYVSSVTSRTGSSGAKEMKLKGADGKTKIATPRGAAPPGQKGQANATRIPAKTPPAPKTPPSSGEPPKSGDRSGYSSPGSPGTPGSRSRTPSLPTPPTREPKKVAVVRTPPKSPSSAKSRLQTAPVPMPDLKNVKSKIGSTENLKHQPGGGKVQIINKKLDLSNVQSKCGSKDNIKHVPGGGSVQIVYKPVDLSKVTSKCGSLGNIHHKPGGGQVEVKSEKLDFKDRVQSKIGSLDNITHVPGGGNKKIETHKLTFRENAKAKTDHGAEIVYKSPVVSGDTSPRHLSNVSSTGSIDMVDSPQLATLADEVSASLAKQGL
Test details: Inhibition of human full length recombinant tau-441 expressed in Escherichia coli assessed as inhibition of heparin-induced protein aggregation by measuring reduction in fluorescence intensity at 5 to 120 uM incubated for 72 hrs by Proteo-stat fluorescence aggregation assay
Measurement parameters: dose microM 5-120, time 72.0 hrs
The source made the active and inactive calls. The calls are words filed in the database; no cut-off is given here.
Answer with one of the outcomes given here: 1 (yes) (active), 0 (no) (inactive)

*Q* I would be grateful if you could indicate the recorded call for CCCN(CCN1CCN(c2ccc(-c3ccccc3)cc2)CC1)[C@H]1CCc2nc(N)sc2C1 .
*A* 0 (no)

*Q* I would be grateful if you could indicate the recorded call for CCCN(CCN1CCN(c2ccc3[nH]c4ccccc4c3c2)CC1)[C@H]1CCc2nc(N)sc2C1 .
*A* 0 (no)

*Q* I would be grateful if you could indicate the recorded call for CCCN(CCN1CCN(c2ccc(-c3ccc(O)c(O)c3)cc2)CC1)[C@H]1CCc2nc(N)sc2C1 .
*A* 1 (yes)

*Q* I would be grateful if you could indicate the recorded call for CCCN(CCN1CCN(c2ccc(-c3ccc(O)c(O)c3)cc2)CC1)[C@H]1CCc2c(O)cccc2C1 .
*A* 1 (yes)

*Q* I would be grateful if you could indicate the recorded call for CN(C)c1ccc2nc3ccc(=[N+](C)C)cc-3sc2c1 .
*A* 1 (yes)
